test description: chemical genetic growth profiling, strain panel (AID 1159580);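 also: tested at 20 µM; growth read once vehicle control cultures reached saturation at 30 °C; 1 = growth at the plate median or of vehicle wells; lower values mean less growth of the strain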
experimental setup: S. cerevisiae deletion strains, growth OD, locus YML016C, strain PPZ1, hits give low values
Out of some 5,500 compounds screened, about 2,000 (36%) were called active. Roughly 18% stayed inconclusive and do not appear here. The list shows a part of the results.

{"columns": ["compound", "normalized growth"],
 "data": [
  ["CC1(C)CC2C1(O)CCC1(C)C=CC(O)C21CO (configuration not stated)", 0.994],
  ["O=[N+]([O-])c1ccc(O)c([N+](=O)[O-])c1", 0.79],
  ["O=C(O)c1cccnc1Nc1cccc(C(F)(F)F)c1", 0.967],
  ["O=[N+]([O-])c1cc([As](=O)(O)O)ccc1O", 0.988],
  ["Cc1occc(=O)c1O", 1],
  ["O=C(O[C@@H]1Cc2c(O)cc(O)cc2O[C@@H]1c1cc(O)c(O)c(O)c1-c1c([C@H]2Oc3cc(O)cc(O)c3C[C@H]2O)cc(O)c(O)c1O)c1cc(O)c(O)c(O)c1", 0.0734],
  ["C1CNCCN1", 1.02],
  ["Cc1ccc(/C(=C\\CN2CCCC2)c2ccccn2)cc1", 1],
  ["O=[N+]([O-])c1cc(O)c(O)c([N+](=O)[O-])c1", 1.01],
  ["CCCc1occc(=O)c1/C=C/O", 0.97],
  ["CN[C@H](CC(=O)O)C(=O)O", 0.989],
  ["Cc1occc(=O)c1/C=C/O", 1]
]}

###

test description: chemical genetic growth profiling, strain panel (AID 1159580)
experimental setup: S. cerevisiae deletion strains, growth OD, locus YPL051W, strain arl3
Hit rate of the full screen: of about 5,500 compounds, about 2,000 (36%) were called active. Inconclusive results (about 18%) are left out. Rule as the data show it: active = normalized growth mostly below about 0.91 (no sharp cut-off); inconclusive = no clear call, values can overlap the other calls; inactive = mostly above about 0.92. The list shows a part of the results.
Classes used: t = active, f = inactive

{"columns": ["compound", "class label"],
 "data": [
  ["NC[C@H](O)c1ccc(O)c(O)c1", "f"],
  ["CC(=O)c1c(O)c(C)c(O)c2c1OC1=CC(=O)C(C(C)=O)C(=O)C12C (configuration not stated)", "f"],
  ["CNC[C@@H](O)c1ccc(O)c(O)c1", "f"],
  ["NCC(O)c1ccc(O)cc1 (configuration not stated)", "f"],
  ["O=C(O)CF", "f"],
  ["CC(=O)O[C@@H]1C[C@@]2(C)[C@H](c3ccoc3)C[C@H]3O[C@]32[C@]2(C)C(=O)C(O)=C3C(C)(C)C(=O)C=C[C@]3(C)C12 (some centres not stated)", "t"],
  ["CCOP(=S)(OCC)SCn1c(=O)oc2cc(Cl)ccc21", "f"]
]}

###

test description: chemical genetic growth profiling, strain panel (AID 1159580)
experimental setup: S. cerevisiae deletion strains, growth OD, locus YBR171W, strain sec66, hits give low values
Screen size: about 5,500 compounds; about 2,000 (36%) were called active. Another 18% or so got no clear call; they are omitted. This is one part of the list.
// reported normalized growth for each item listed

{"columns": ["molecule", "normalized growth"],
 "data": [
  ["CCCC(C)C1(CC)C(=O)N=C(S)NC1=O (stereo unspecified)", 0.993],
  ["COc1cc2c(c(OC)c1OC)-c1ccc(OC)c(=O)cc1[C@@H](NC(C)=O)CC2", 1.01],
  ["O=C(O)CF", 1.03],
  ["CC(C)=CCC[C@](C)(O)C1CC=C(C)CC1 (stereo partly specified)", 0.967],
  ["CCCC(C)C1(CC)C(=O)NC(=O)NC1=O (stereo unspecified)", 1],
  ["C=CCC1(C(C)CCC)C(=O)N=C(S)NC1=O (stereo unspecified)", 0.949],
  ["CN/C(=C\\[N+](=O)[O-])NCCSCc1ccc(CN(C)C)o1", 0.989],
  ["C=CC(C)(O)CC/C=C(\\C)CCC=C(C)C (stereo unspecified)", 0.965],
  ["Nc1ccc(C(=O)NCC(=O)O)cc1", 1.02],
  ["C1CNCCN1", 1.02],
  ["CC(C)=CCC/C(C)=C/CC/C(C)=C/CC/C(C)=C/CC/C(C)=C/CC/C(C)=C/CC/C(C)=C/CC/C(C)=C/CC/C(C)=C/CO", 1]
]}

###

test description: chemical genetic growth profiling, strain panel (AID 1159580);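 also: tested at 20 µM; growth read once vehicle control cultures reached saturation at 30 °C; 1 = growth at the plate median or of vehicle wells; lower values mean less growth of the strain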
experimental setup: S. cerevisiae deletion strains, growth OD, locus YNL183C, strain NPR1, hits give low values
Hit rate of the full screen: of about 5,500 compounds, about 2,000 (36%) were called active. Inconclusive results (about 18%) are left out. The list shows a part of the results.

{"columns": ["smiles data", "normalized growth"],
 "data": [
  ["O=C(NC(=O)c1c(F)cccc1Cl)OCc1ccc(Cl)cc1Cl", 0.875],
  ["CCCCC1(COC(=O)CCC(=O)O)C(=O)N(c2ccccc2)N(c2ccccc2)C1=O", 0.945],
  ["O=C(NC(=O)c1c(F)cccc1F)Nc1ccc(Cl)cc1", 0.954]
]}

###

test description: chemical genetic growth profiling, strain panel (AID 1159580);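 also: tested at 20 µM; growth read once vehicle control cultures reached saturation at 30 °C; 1 = growth at the plate median or of vehicle wells; lower values mean less growth of the strain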
experimental setup: S. cerevisiae deletion strains, growth OD, locus YDL074C, strain BRE1, hits give low values
Among all 5,500 compounds or so, about 2,000 (36%) were called active. Inconclusive results (about 18%) are left out. This is one part of the list.
// returns condition not met unless normalized growth is strictly below 1, in which case condition met

{"columns": ["compound", "class label"],
 "data": [
  ["O=[N+]([O-])c1ccc(O)c([N+](=O)[O-])c1", "condition met"],
  ["CN/C(=C\\[N+](=O)[O-])NCCSCc1ccc(CN(C)C)o1", "condition not met"],
  ["CCCCC(CC)CN1CN(CC(CC)CCCC)CC(C)(N)C1 (configuration not stated)", "condition met"],
  ["NCCNC(=O)c1ccc(Cl)cc1", "condition not met"]
]}

###

// reported normalized growth for each item listed
test description: chemical genetic growth profiling, strain panel (AID 1159580);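 also: tested at 20 µM; growth read once vehicle control cultures reached saturation at 30 °C; 1 = growth at the plate median or of vehicle wells; lower values mean less growth of the strain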
experimental setup: S. cerevisiae deletion strains, growth OD, locus YLR262C, strain YPT6, hits give low values
The campaign covered roughly 5,500 compounds. About 2,000 (36%) were called active. Not shown: some 18% with an inconclusive outcome. The list shows a part of the results.

{"columns": ["molecule", "normalized growth"],
 "data": [
  ["CC1CCN(C(=O)CC#N)CC1", 1.1],
  ["C=CC(C)(O)CC/C=C(\\C)CCC=C(C)C (centres undefined)", 0.926],
  ["CC(C)NCC(O)c1ccc(O)c(O)c1 (centres undefined)", 1.01],
  ["COc1ccc(CCNC(=S)Nc2cccc(C(F)(F)F)c2)cc1OC", 0.831],
  ["Nc1nc2ncc(C(=O)O)nc2c(=O)[nH]1", 1.03],
  ["O=C1C=CC2=C3c4cc(O)c(O)cc4CC3(O)COC2=C1O (centres undefined)", 0.931],
  ["C[C@H]1[C@H]2CCC3C4CC=C5C[C@@H](N(C)C)CC[C@]5(C)C4CC[C@@]32CN1C (some centres undefined)", 0.962],
  ["C1CCN2C[C@@H]3C[C@H](CN4CCCC[C@@H]34)[C@H]2C1", 1.1],
  ["CC(=O)NCCCCCC(=O)O", 1.07],
  ["Cc1onc(NC(=O)NC(=O)c2c(F)cccc2Cl)c1Br", 0.988],
  ["Cc1ccsc1/C=C/C1=NCCCN1C", 0.946],
  ["OC[C@@H]1CCCN2CCCC[C@H]12", 1.06],
  ["CC1C(c2ccccc2)OCCN1CN1C(=O)c2ccccc2C1=O (centres undefined)", 1.07],
  ["CN(C)CCOC(C)(c1ccccc1)c1ccccn1 (centres undefined)", 0.939],
  ["O=C(Nc1ccc(C(F)(F)F)cc1)Nc1ccccc1C(=O)O", 0.935],
  ["COC(=O)[C@]1(C)CC[C@]2(C)CC[C@]3(C)C4=CCc5c(cc(O)c(O)c5C)[C@]4(C)CC[C@@]3(C)C2C1 (some centres undefined)", 0.938],
  ["O=C(O)c1ccccc1Nc1cccc(C(F)(F)F)c1", 0.821],
  ["NC(N)=NC(N)=Nc1cc(C(F)(F)F)cc(C(F)(F)F)c1", 1.01],
  ["CCOP(=S)(OCC)SCn1c(=O)oc2cc(Cl)ccc21", 0.969],
  ["O[N+]1=CC=CCC1=S.On1ccccc1=S.[Zn]", 0.116],
  ["C[n+]1cccc(C(=O)[O-])c1", 1.12],
  ["NC(=NS(=O)(=O)c1cc(C(F)(F)F)cc(C(F)(F)F)c1)c1cccs1", 0.578],
  ["CN(C)C=Nc1nnc(Sc2ncccc2[N+](=O)[O-])s1", 1.03],
  ["O=C(CCCCCCCCCCCCC1CCCC1)Nc1ccc(S(=O)(=O)c2ccc(NC(=O)CCCCCCCCCCCCC3CCCC3)cc2)cc1", 1.03]
]}
